- test-target: human LMPTP-A (Homo sapiens)
- Sequence (P24666 1-158): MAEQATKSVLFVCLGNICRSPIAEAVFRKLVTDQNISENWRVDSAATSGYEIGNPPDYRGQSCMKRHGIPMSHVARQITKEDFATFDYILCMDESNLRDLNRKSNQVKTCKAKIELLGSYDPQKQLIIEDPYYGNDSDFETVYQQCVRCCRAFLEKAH
pIC50: −log10 of the molar value.
Measured pIC50 accompanies every entry in the list below.

Observe how each entry below is paired with its result.
cpd-smiles: Cc1nc(C)c(Cn2cnc(N)c3nc(-c4ccccc4C)nc2-3)s1
endpoint-result: > 6.00

cpd-smiles: Cc1ccccc1-c1nc2c(N)ncn(Cc3c(Br)ccnc3Cl)c-2n1
endpoint-result: > 6.00

cpd-smiles: COc1nccc(I)c1Cn1cnc(N)c2nc(-c3ccccc3)nc1-2
endpoint-result: > 6.00

cpd-smiles: Cc1ccccc1-c1nc2c(N)ncn(Cc3c(Br)cnn3C)c-2n1
endpoint-result: > 6.00

cpd-smiles: Nc1ncn(Cc2c(Cl)cncc2Cl)c2nc(-c3cnccc3C(F)(F)F)nc1-2
endpoint-result: > 6.00

Field: next molecule
Noted for Nc1ncn(Cc2c(Cl)cncc2Cl)c2nc(-c3cccc4c3CCCC4)nc1-2 : its pIC50 reads < 4.70

---

Target chain: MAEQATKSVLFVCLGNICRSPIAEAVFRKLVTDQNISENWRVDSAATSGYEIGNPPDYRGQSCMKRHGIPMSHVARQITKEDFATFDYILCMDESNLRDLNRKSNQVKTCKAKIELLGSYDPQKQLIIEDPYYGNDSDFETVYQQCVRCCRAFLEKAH
Measured IC50 accompanies every entry in the list below.

Observe how each entry below is paired with its result.
cpd-smiles: Cc1ccccc1-c1nc2c(N)nc(C)n(Cc3c(Cl)ccnc3Cl)c-2n1
IC50: 1000 to 20000 nM
//
cpd-smiles: Cc1ccccc1-c1nc2c(N)nc(C)n(Cc3c(Cl)cncc3Cl)c-2n1
IC50: 1000 to 20000 nM
//
cpd-smiles: Cc1ccccc1-c1nc2c(N)ncn(Cc3cccnc3C)c-2n1
IC50: < 1000 nM
//
cpd-smiles: Cc1ncsc1Cn1cnc(N)c2nc(-c3ccccc3)nc1-2
IC50: 1000 to 20000 nM

Field: next compound
Noted for Nc1ncn(Cc2c(Cl)cncc2Cl)c2nc(-c3nc4ccccc4[nH]3)nc1-2 : its IC50 reads < 1000 nM
